Biological target: CaAbp1-D1
Assay: SPOT peptide array binding signal intensity (averaged, normalized) (arbitrary units (background-subtracted, floor 0; scale differs between SH3 domains)); higher = stronger binding of the SH3 domain to the peptide
quantity-name: SPOT peptide array binding signal intensity
API note: the answer field is a bare number with no unit suffix.

Reported SPOT peptide array binding signal intensity ( IKKRNKIRLPSGSPE ) = 1510

GET /value?item= RRSKSLPITPKSIFN &field=SPOT peptide array binding signal intensity returns 144

Entry ERPKRRAPPPVPKKP , SPOT peptide array binding signal intensity reported as 1770

Entry under test: NLKKRPPTAPQRKIS . Its SPOT peptide array binding signal intensity was 5270

Summary for this binder, AAHKTKPSIPPKKVE : SPOT peptide array binding signal intensity is 2440

Field SPOT peptide array binding signal intensity (entry AHFQPQRTAPKPPIS ) reads 65.5

Lab note: measured SPOT peptide array binding signal intensity of KTKQQKPAIPQKKSF was 4040

The binder listed as VFQFQMPTTPISTKM shows SPOT peptide array binding signal intensity equal to 59

The reported SPOT peptide array binding signal intensity of the binder SNRRPVPRRPSQPLN was 328

Item: VLRFLGFPLPIFEKG | SPOT peptide array binding signal intensity: 4

# binder IFLRISINFPLNYPN ; its SPOT peptide array binding signal intensity = 448

Consider TKRKRPARLIFYDSK . Its measured SPOT peptide array binding signal intensity is 717

Kindly note the recorded SPOT peptide array binding signal intensity for LEFRAILFIPKRAPF , which is 56

// sample RLSFFFPLDPAYIRN , its SPOT peptide array binding signal intensity was 2

Lab note: measured SPOT peptide array binding signal intensity of LLIRWLILMPLVGSR was 334

In plain terms, KIRRSSLMIPNPQQF has a documented SPOT peptide array binding signal intensity of 316

RRRIAYPFYPFKKLG yielded SPOT peptide array binding signal intensity of 482

The binder listed as IRMPSNPALPKKLLN shows SPOT peptide array binding signal intensity equal to 616

Memo: HGKRRAPLLLAKLDV , reported SPOT peptide array binding signal intensity: 499

The recorded SPOT peptide array binding signal intensity for RPVPRRPSQPLNTLS is 456

Kindly note the recorded SPOT peptide array binding signal intensity for LKQRFFLMFPKSIIW , which is 295

# SPOT peptide array binding signal intensity of NPLPKEPRLPKRKVA = 655

So for KMSRSPPRPPSLKII , the logged SPOT peptide array binding signal intensity turned out to be 734

Form field SPOT peptide array binding signal intensity, entry TKPTPPPKPSHLKPK : 655

GATNNAPTLPKRKNP yielded SPOT peptide array binding signal intensity of 131

// SPOT peptide array binding signal intensity lookup, binder = SRSKPLPLTPNSKYN , result: 64

Value of SPOT peptide array binding signal intensity reported for the binder RRASLFPRDPKRLRP is 520
